MEASURED_TARGET: EGFR L858R/T790M (Homo sapiens, UniProt P00533, L858R/T790M)
Construct: purchased Carna Bio
Sequence (P00533 25-1210 T790M/L858R): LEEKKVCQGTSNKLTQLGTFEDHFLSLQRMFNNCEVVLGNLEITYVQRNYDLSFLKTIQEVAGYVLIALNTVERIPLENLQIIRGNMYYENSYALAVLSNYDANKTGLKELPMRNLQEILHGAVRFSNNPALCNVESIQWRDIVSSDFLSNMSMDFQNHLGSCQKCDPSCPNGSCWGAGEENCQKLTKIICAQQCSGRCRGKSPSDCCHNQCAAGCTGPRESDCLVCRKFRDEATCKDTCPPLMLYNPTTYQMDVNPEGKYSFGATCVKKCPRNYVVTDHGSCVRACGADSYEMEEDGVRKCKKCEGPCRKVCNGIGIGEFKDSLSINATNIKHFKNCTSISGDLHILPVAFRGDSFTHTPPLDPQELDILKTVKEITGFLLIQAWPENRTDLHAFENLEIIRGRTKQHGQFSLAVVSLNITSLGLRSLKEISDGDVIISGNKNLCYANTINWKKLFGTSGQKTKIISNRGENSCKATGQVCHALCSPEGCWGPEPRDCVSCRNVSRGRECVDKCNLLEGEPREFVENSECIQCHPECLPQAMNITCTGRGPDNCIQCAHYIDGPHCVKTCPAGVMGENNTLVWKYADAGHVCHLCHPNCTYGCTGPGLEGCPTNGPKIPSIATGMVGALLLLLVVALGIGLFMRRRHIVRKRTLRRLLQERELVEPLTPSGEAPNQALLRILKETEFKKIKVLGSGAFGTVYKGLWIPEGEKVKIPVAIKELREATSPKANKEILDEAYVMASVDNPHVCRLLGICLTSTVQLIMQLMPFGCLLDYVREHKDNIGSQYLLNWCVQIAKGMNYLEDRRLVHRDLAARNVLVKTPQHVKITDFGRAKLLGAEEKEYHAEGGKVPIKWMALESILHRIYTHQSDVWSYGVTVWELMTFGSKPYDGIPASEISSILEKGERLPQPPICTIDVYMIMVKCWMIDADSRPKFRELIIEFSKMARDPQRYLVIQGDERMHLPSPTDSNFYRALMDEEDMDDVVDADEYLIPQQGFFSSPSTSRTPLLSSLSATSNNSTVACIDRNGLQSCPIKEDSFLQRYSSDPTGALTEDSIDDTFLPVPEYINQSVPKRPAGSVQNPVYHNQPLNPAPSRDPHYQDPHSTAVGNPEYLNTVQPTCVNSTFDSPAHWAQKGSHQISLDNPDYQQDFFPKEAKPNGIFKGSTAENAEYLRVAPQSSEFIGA
MEASUREMENT_DESCRIPTION: Inhibition of EGFR L858R/T790M biochemical enzymatic activity (HTRF)
ASSAY_CONDITIONS: EGFR L858R-T790M, 1 mM ATP, 1 h, room temperature, read-out: IC50 (nM) @L858R-T790M
# note: boundary value 6 nM maps to 0.0; IC50 below it maps to 1.0

The following molecules have reported results that may help.
MOLECULE | CLASS_NAME
CN1C2CC1CN(c1ccc3nc4n(c3c1)C13CCC(CN(CCOc5c(cnn5C)-c5cc(cn(C)c5=O)C(=O)N4)C1)C3)C2 (single isomer, unassigned) [Example A98B] | 1.0
Cn1ncc2c1OCCN1CC3CCC(C3)(C1)n1c(nc3ccc(N4CCC(N5CC(F)C5)C4)cc31)NC(=O)c1cc-2c(=O)n(C)c1 (single isomer, unassigned) [Example A94A] | 0.0
CC(C)N1CCN(c2ccc3nc4n(c3c2)C23CCC(CN(CCOc5c(cnn5C)-c5cc(cn(C)c5=O)C(=O)N4)C2)C3)CC1 (single isomer, unassigned) [Example A108B] | 1.0
C[C@@H]1CCCOc2c(cnn2C)-c2cc(cn(C)c2=O)C(=O)Nc2nc3ccc(N4CCC5(CN(C)C5)C4)cc3n2C1 [Example A43] | 0.0

stdin: Hi there! Is IC50 for CN(C)CCCN(C)c1ccc2nc3n(c2c1)C12CCC(CN(CCOc4c(cnn4C)-c4cc(cn(C)c4=O)C(=O)N3)C1)C2 (single isomer, unassigned) [Example A89A] below 6 nM, do you know?
stdout: 0.0

stdin: Hi there! Is IC50 for CN1CCC2(CN(c3ccc4nc5n(c4c3)C34CCC(CN(CCOc6c(cnn6C)-c6cc(cn(C)c6=O)C(=O)N5)C3)C4)C2)C(F)(F)C1 (single isomer, unassigned) [Example A91B] below 6 nM, do you know?
stdout: 0.0

stdin: Hi there! Is IC50 for Cn1ncc2c1OCCN1CCCCC(C1)n1c(nc3ccccc31)NC(=O)c1cc-2c(=O)n(C)c1 (stereo not drawn) [Example A8] below 6 nM, do you know?
stdout: 0.0

stdin: Hi there! Is IC50 for CCN1CCOc2c(cnn2C)-c2cc(cn(C)c2=O)C(=O)Nc2nc3ccccc3n2C(C)C1 (stereo not drawn) [Example A6] below 6 nM, do you know?
stdout: 0.0

stdin: Hi there! Is IC50 for C[C@@H]1CCCOc2c(cnn2C)-c2cc(cn(C)c2=O)C(=O)Nc2nc3ccc(N4CCC(N5CCOCC5)C4)cc3n2C1 (stereo partly drawn) [Example A28] below 6 nM, do you know?
stdout: 0.0

stdin: Hi there! Is IC50 for CN1CCN(c2cc3c(cc2F)nc2n3C34CCC(CC3)CN(CCOc3c(cnn3C)-c3cc(cn(C)c3=O)C(=O)N2)C4)CC1 [Example A115] below 6 nM, do you know?
stdout: 0.0

stdin: Hi there! Is IC50 for CN1CCC2(CC1)CN(c1ccc3nc4n(c3c1)C13CCC(CN(CCOc5c(cnn5C)-c5cc(cn(C)c5=O)C(=O)N4)C1)C3)C2 (single isomer, unassigned) [Example A77B] below 6 nM, do you know?
stdout: 1.0

# credit: patent US20260365670A1
